// reported log10 IC50 per item
study system: Methionine aminopeptidase 1 (Homo sapiens, UniProt P53582)
Plainly stated, the numbers are log10 of IC50 given in µM.

The examples below pair each entry with its known result.
# molecule, study system, log10 IC50
records = [
    ("CCSCC[C@@H](N)[C@H](O)C(=O)NNc1ccc(C)cc1", "Methionine aminopeptidase 1 (Homo sapiens, UniProt P53582)", 0.11),
    ("CC(C)CSC[C@@H](N)[C@H](O)C(=O)N(C)Cc1cccc2ccccc12", "Methionine aminopeptidase 1 (Homo sapiens, UniProt P53582)", 1.28),
    ("N[C@H](CCc1ccccc1)C(O)C(=O)NOc1ccccc1 (single isomer, unassigned)", "Methionine aminopeptidase 1 (Homo sapiens, UniProt P53582)", 1.11),
    ("CCOC(=O)[C@H](C)NC(=O)C(O)[C@H](N)CCSCC (stereo partly drawn)", "Methionine aminopeptidase 1 (Homo sapiens, UniProt P53582)", 1.84),
    ("CCSCC[C@@H](N)[C@H](O)C(=O)N(C)Cc1cccc2ccccc12", "Methionine aminopeptidase 1 (Homo sapiens, UniProt P53582)", 1.08),
]

[ask] Report measured log10 IC50 on Methionine aminopeptidase 1 (Homo sapiens, UniProt P53582); entry: C[C@H](NC(=O)C(O)[C@H](N)CCc1ccccc1)c1cccc2ccccc12 (single isomer, unassigned)
[reply] 1.08

[ask] Report measured log10 IC50 on Methionine aminopeptidase 1 (Homo sapiens, UniProt P53582); entry: "CCCSC[C@@H](N)[C@H](O)C(=O)NNc1ccc(C)cc1"
[reply] 0.70

[ask] Report measured log10 IC50 on Methionine aminopeptidase 1 (Homo sapiens, UniProt P53582); entry: "N[C@H](C1CCCCC1)[C@H](O)C(=O)N[C@@H](CO)c1ccccc1"
[reply] 1.90

[ask] Report measured log10 IC50 on Methionine aminopeptidase 1 (Homo sapiens, UniProt P53582); entry: "CCCSC[C@@H](N)[C@H](O)C(=O)NOc1ccccc1"
[reply] 0.23

[ask] Report measured log10 IC50 on Methionine aminopeptidase 1 (Homo sapiens, UniProt P53582); entry: "CC(C)SCC[C@@H](N)[C@H](O)C(=O)N[C@@H](CO)c1ccccc1"
[reply] 1.51

[ask] Report measured log10 IC50 on Methionine aminopeptidase 1 (Homo sapiens, UniProt P53582); entry: "Cc1ccc(NNC(=O)[C@@H](O)[C@H](N)CCSC(C)C)cc1"
[reply] 1.04

[ask] Report measured log10 IC50 on Methionine aminopeptidase 1 (Homo sapiens, UniProt P53582); entry: CCCSC[C@@H](N)C(O)C(=O)N[C@@H](C)C(=O)OCC (stereo partly drawn)
[reply] 1.76
